Target or system: T1, T4 (Tn-MUC1) (PAPGSTAPPAHGVT(α-GalNAc)SAPDTRPAPG-OH)
T1 peptide: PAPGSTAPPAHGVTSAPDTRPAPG
Assay text: glycopeptide array
Kindly state EC50 for each of the entries shown.
Report the value in µg/mL with no unit label.

// EC50 lookup, binder = 74 (antibody, V domains shown) VH: QVQLVQSGAEVKKPGASVQVSCKASGYTFINYYLQWVRQAPGQGLEWMGTINPFDGSTHYEQNFQGRVTMTRDTSTNTVYMELNGLRSEDTAVYYCARDHMIGYILFDYWGQGTTVTVSS , result: 0.111

// EC50 lookup, binder = 158 (antibody, V domains shown) VH: QVQLVQSGAEVKKPGASVKVSCKASGYTFTSYYMHWVRQAPGQGLEWMGVINPFDGSTNYAQKFQGRVTVTRDTATTTVFMDLSSLRSEDTAVYYCARDNMLGYVLFDYWGQGTLVTVSS , result: 0.095

// EC50 lookup, binder = 62 (antibody, V domains shown) VH: QVQLVESGAEVKKPGASVKVSCKASGYSFTSYYIQWVRQAPGQGLEWLAVINPIDGSTNYAQKFQGRVTVTRDTSTSTVYMELSSLRSEDTAVYYCARDYMRGFVVFDYWGQGTLVTVSS , result: 0.042

// EC50 lookup, binder = 190 (antibody, V domains shown) VH: QVQLVQSGAEVKKPGASVKVSCKASGYAFTNYYIHWVRQAPGHGLTWMGVINPFDSSTDFAQKFQGRLTMTRDTSTSTVYMDLSSLRSEDTAVYYCARDYMRGHVVFDNWGQGTLVTVSS , result: 0.102
